# Test system: IL-6 (THP-1 cells)
# testSummary: Inhibition of IL-6 in LPS-stimulated THP-1 human monocyte cells (HTRF)
# Type: cell-based
# particulars: inhibition of IL-6 in LPS-stimulated THP-1 cells, HTRF, 10-point dose-response starting from 10 μM
assayMetric: pEC50
Numbers only, as −log10 of the molar value.

As a guide, the following entries are already answered.
c1ccc(CNCc2cncc(-c3cc4c(-c5cc6c(-c7cccs7)cccc6[nH]5)n[nH]c4cn3)c2)cc1 5.84
c1cncc(-c2cccc3[nH]c(-c4n[nH]c5cnc(-c6cncc(CN7CCCC7)c6)cc45)cc23)c1 5.82
Fc1ccc(-c2cccc3[nH]c(-c4n[nH]c5cnc(-c6cncc(CN7CCCC7)c6)cc45)cc23)cc1 5.42

Lab note: next compound to report on.
Qu. Kindly state the measured pEC50 obtained for CN(C)CCNc1cc(F)cc(-c2cccc3[nH]c(-c4n[nH]c5cnc(-c6ccccn6)cc45)cc23)c1 with IL-6 (THP-1 cells).
Ans. 5.81

* * *

Kindly state EC50 for each of the entries shown.
# System: IL-6 (THP-1 cells)
# testSummary: Inhibition of IL-6 in LPS-stimulated THP-1 human monocyte cells (HTRF)
# Assay type: cell-based
# particulars: inhibition of IL-6 in LPS-stimulated THP-1 cells, HTRF, 10-point dose-response starting from 10 μM
Answers are plain numbers, in nM.

molecule	EC50, nM
FC1(F)CCN(Cc2cncc(-c3cc4c(-c5cc6c(-c7cccnc7)cccc6[nH]5)n[nH]c4cn3)c2)C1 [Compound 110]	422
CCNCc1cncc(-c2cc3c(-c4cc5c(-c6cc(F)cc(NCCN(C)C)c6)cccc5[nH]4)n[nH]c3cn2)c1 [Compound 454]	856
CS(=O)(=O)NCc1cc(F)cc(-c2cccc3[nH]c(-c4n[nH]c5cnc(-c6cncc(NC(=O)C7CCCCC7)c6)cc45)cc23)c1 [Compound 499]	1780
CC(C)CC(=O)Nc1cncc(-c2cc3c(-c4cc5c(-c6ccncc6)cccc5[nH]4)n[nH]c3cn2)c1 [Compound 114]	1080
CN(C)Cc1cncc(-c2cc3c(-c4cc5c(N6CCN(C)CC6)cccc5[nH]4)n[nH]c3cn2)c1 [Compound 237]	3610
CN1CCN(c2cccc3[nH]c(-c4n[nH]c5cnc(-c6cncc(NC(=O)Cc7ccccc7)c6)cc45)cc23)CC1 [Compound 234]	1940
O=C(Nc1cncc(-c2cc3c(-c4cc5ccccc5[nH]4)n[nH]c3cn2)c1)c1ccccc1 [Compound 263]	1190
CCCCC(=O)Nc1cncc(-c2cc3c(-c4cc5c(-c6ccccn6)cccc5[nH]4)n[nH]c3cn2)c1 [Compound 159]	1560

Hi, could you look up EC50 for each item in my list?
1. CS(=O)(=O)NCc1cc(F)cc(-c2cccc3[nH]c(-c4n[nH]c5cnc(-c6cncnc6)cc45)cc23)c1 [Compound 503]
2. CCCC(=O)Nc1cncc(-c2cc3c(-c4cc5c(-c6cccs6)cccc5[nH]4)n[nH]c3cn2)c1 [Compound 353]
3. c1ccc2[nH]c(-c3n[nH]c4cnc(-c5cncc(CN6CCCC6)c5)cc34)cc2c1 [Compound 266]
4. CCNCc1cncc(-c2cc3c(-c4cc5c(-c6ccc(F)cc6)cccc5[nH]4)n[nH]c3cn2)c1 [Compound 34]
5. Cc1ccncc1-c1cc2c(-c3cc4c(-c5ccccn5)cccc4[nH]3)n[nH]c2cn1 [Compound 145]

Ans.
2980
1890
424
399
2830
